Please respond with reported IC50 for every item in the list.
# Assayed target: Mitogen-activated protein kinase 1 (Homo sapiens, UniProt P28482)
# Sequence (P28482 whole entry): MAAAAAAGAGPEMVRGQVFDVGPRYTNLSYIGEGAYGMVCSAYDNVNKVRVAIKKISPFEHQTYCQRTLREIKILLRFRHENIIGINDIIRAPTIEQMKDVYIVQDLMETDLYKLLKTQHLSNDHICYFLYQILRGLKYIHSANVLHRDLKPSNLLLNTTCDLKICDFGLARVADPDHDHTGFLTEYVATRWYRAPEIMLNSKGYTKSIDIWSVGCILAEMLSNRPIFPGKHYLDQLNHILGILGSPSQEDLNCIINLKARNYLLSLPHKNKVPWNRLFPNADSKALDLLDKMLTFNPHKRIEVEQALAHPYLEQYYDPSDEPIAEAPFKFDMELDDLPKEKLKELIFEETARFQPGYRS
# Assay: Inhibition of recombinant ERK2 (unknown origin) after 1 hr by Alphascreen assay

Past entries and their recorded results:
c1ccc(-c2cnc3cc(Nc4ccc(N5CCCCC5)cc4)ncc3n2)cc1: > 100 µM
C#Cc1cccc(Nc2nccc3nc(-c4ccccc4)cnc23)c1: > 100 µM

Moving on to the next compound.
Query block: Field request: IC50 | item: COc1ccccc1Nc1nccc2nc(-c3ccccc3)cnc12
Result block: > 100 µM

* * *

Please respond with reported IC50 for every item in the list.
# Assayed target: Tyrosine-protein kinase Yes (Homo sapiens)
# Sequence (P07947 whole entry): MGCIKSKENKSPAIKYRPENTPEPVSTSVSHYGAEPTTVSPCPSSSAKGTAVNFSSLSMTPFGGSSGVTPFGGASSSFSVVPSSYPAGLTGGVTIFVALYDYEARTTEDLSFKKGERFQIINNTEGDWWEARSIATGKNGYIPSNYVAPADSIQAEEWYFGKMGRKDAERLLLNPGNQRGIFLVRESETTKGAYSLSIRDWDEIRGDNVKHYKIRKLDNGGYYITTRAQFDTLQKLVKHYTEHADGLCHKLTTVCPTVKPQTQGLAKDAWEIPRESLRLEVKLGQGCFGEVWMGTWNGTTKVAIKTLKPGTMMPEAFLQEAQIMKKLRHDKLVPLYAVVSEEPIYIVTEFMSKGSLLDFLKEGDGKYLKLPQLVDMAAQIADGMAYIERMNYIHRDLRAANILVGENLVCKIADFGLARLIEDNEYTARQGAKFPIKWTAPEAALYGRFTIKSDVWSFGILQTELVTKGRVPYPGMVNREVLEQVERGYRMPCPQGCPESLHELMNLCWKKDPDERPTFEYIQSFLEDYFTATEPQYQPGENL
# Assay: Inhibition of N-terminal His6-tagged human recombinant Yes expressed in baculovirus infected insect Sf21 cells after 1 hr by Alphascreen assay

Past entries and their recorded results:
C=CCNC(=O)Nc1cncc2nc(-c3ccccc3)cnc12: > 100 µM
COc1cccc(NC(=O)Nc2nccc3nc(-c4ccccc4)cnc23)c1: > 31.6 µM
c1ccc(Nc2cncc3nc(-c4ccc(N5CCCCC5)cc4)cnc23)cc1: > 31.6 µM

Moving on to the next molecule.
Query block: Field request: IC50 | item: COc1cccc(NC(=O)Nc2cncc3nc(-c4ccccc4)cnc23)c1
Result block: > 31.6 µM

* * *

# Assayed target: High affinity nerve growth factor receptor (Homo sapiens)
# Sequence (P04629 whole entry): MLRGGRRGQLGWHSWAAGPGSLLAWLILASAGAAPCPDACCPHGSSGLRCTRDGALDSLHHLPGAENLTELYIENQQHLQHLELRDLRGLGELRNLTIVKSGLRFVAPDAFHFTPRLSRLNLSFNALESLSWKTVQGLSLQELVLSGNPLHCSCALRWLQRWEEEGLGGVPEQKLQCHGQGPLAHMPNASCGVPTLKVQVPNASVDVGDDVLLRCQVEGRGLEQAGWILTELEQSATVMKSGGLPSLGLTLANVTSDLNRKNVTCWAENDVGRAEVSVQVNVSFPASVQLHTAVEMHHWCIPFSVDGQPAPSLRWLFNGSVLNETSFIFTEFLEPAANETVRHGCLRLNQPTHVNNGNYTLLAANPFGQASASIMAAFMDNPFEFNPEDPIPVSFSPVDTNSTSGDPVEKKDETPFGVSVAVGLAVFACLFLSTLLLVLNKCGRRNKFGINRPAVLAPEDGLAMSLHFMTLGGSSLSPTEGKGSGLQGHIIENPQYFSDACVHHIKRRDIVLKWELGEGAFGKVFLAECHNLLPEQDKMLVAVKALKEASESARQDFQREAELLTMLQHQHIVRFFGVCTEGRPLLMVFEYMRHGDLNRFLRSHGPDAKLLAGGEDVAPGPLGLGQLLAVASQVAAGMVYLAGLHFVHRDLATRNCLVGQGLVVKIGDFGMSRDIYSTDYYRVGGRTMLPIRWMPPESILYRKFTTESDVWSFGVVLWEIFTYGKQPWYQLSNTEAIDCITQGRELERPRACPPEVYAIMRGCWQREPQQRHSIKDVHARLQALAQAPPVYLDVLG
# Assay: Inhibition of N-terminal His6-tagged human recombinant TrkA (440 to end residues) expressed in baculovirus infected insect Sf21 cells after 1 hr by Alphascreen assay
Measurement label: IC50

Fc1ccc(Nc2cncc3nc(-c4ccccc4)cnc23)cc1Cl: > 100 µM

For every item in the list below, what is its measured IC50?
1. c1ccc(-c2cnc3c(Nc4ccc(N5CCCCC5)cc4)cncc3n2)cc1
2. c1ccc(-c2cnc3cnc(Nc4ccc(N5CCOCC5)cc4)cc3n2)cc1
3. COc1ccc(-c2cnc3cncc(Nc4ccc(N5CCOCC5)cc4)c3n2)cc1
4. COc1ccc(Nc2nccc3nc(-c4ccccc4)cnc23)cc1
5. COc1cccc(Nc2cc3nc(-c4ccccc4)cnc3cn2)c1
6. c1ccc(Nc2cncc3nc(-c4ccc(N5CCCCC5)cc4)cnc23)cc1

Result block:
1: 3.42 µM; 2: > 100 µM; 3: 2.48 µM; 4: > 100 µM; 5: > 100 µM; 6: > 100 µM

* * *

# Assayed target: Tyrosine-protein kinase ABL1 (Homo sapiens, UniProt P00519)
# Sequence (P00519 whole entry): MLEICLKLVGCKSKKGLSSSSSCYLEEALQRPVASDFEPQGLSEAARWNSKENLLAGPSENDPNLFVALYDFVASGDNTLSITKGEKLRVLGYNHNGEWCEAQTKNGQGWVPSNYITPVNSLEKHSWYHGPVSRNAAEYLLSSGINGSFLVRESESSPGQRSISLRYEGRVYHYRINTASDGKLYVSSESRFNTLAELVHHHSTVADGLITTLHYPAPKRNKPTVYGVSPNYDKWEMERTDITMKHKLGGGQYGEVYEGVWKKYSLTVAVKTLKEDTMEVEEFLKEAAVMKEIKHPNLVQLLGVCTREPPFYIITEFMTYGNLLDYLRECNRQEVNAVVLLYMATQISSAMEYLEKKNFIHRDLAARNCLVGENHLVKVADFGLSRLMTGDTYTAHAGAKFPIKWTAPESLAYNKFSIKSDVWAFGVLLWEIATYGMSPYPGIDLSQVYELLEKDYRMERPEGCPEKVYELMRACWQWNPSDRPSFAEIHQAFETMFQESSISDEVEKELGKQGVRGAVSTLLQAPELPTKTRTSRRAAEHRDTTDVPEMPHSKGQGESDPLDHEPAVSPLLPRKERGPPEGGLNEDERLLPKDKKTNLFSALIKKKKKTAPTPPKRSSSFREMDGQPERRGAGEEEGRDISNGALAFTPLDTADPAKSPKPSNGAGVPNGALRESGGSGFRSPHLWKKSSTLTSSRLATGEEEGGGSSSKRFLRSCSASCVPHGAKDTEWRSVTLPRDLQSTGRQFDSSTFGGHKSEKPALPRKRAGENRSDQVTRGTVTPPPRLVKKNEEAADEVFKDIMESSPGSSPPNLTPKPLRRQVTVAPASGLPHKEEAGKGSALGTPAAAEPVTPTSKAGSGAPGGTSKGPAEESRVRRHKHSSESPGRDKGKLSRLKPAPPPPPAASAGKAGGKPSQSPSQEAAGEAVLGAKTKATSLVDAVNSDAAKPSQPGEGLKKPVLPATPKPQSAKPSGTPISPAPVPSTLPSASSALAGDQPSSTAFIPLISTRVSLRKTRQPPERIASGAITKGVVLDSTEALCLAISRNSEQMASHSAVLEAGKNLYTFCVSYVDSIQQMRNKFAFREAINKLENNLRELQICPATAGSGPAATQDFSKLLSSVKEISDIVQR
# Assay: Inhibition of recombinant c-Abl (unknown origin) after 1 hr by Alphascreen assay
pIC50: −log10 of the molar value.
Measurement label: pIC50

Past entries and their recorded results:
C#Cc1cccc(Nc2nccc3nc(-c4ccccc4)cnc23)c1: < 4.00
Fc1ccc(Nc2cncc3nc(-c4ccccc4)cnc23)cc1Cl: < 4.00

Moving on to the next compound.
Query block: Field request: pIC50 | item: COc1cccc(NC(=O)Nc2nccc3nc(-c4ccccc4)cnc23)c1
Result block: < 4.00

* * *

# Assayed target: UniProt P07947
# Assay: Inhibition of N-terminal His6-tagged human recombinant Yes expressed in baculovirus infected insect Sf21 cells after 1 hr by Alphascreen assay
pIC50: −log10 of the molar value.
Measurement label: pIC50

Past entries and their recorded results:
c1ccc(-c2cnc3cc(Nc4ccc(N5CCCCC5)cc4)ncc3n2)cc1: 4.57
COc1cccc(Nc2cc3nc(-c4ccccc4)cnc3cn2)c1: < 4.50
c1ccc(-c2cnc3cnc(Nc4ccc(N5CCOCC5)cc4)cc3n2)cc1: < 4.00
CCNC(=O)Nc1nccc2nc(-c3ccccc3)cnc12: < 4.00
Fc1ccc(Nc2cncc3nc(-c4ccccc4)cnc23)cc1Cl: < 4.50

Query block: Given the entry COc1cccc(Nc2nccc3nc(-c4ccccc4)cnc23)c1 , what pIC50 was observed with UniProt P07947?
Result block: < 4.00

* * *

# Assayed target: Mitogen-activated protein kinase 1 (Homo sapiens)
# Assay: Inhibition of recombinant ERK2 (unknown origin) after 1 hr by Alphascreen assay
Please respond with reported IC50 for every item in the list.

c1ccc(-c2cnc3c(Nc4ccc(N5CCCCC5)cc4)cncc3n2)cc1: 2.34 µM

For every item in the list below, what is its measured IC50?
1. Fc1ccc(Nc2cncc3nc(-c4ccccc4)cnc23)cc1Cl
2. c1ccc(Nc2cncc3nc(-c4ccc(N5CCCCC5)cc4)cnc23)cc1

Result block:
> 100 µM
> 100 µM
